Origin of the recorded values: PubChem BioAssay (NCI)

- System: NCI-H460 lung
- Procedure details: NCI-60 one-dose screen, 48 h (100 = growth as untreated, 0 = no growth, -100 = all killed)
- Test settings: 10 µM unless noted
This is part of a sample that, as a whole, favours compounds with a hit. Of some 83,000 tested, about 20% had one in any assay.
Quantity: growth (%)

Cc1ccc2c(c1)sc(-c1ccc(N(C)C)cc1)[n+]2C; -25.7
CN=C(N)N/N=C(\C)c1ccc2c(c1)Cc1ccccc1-2; -97.9
c1ccc(C2NCCNC2c2ccccc2)cc1 (stereo unspecified); 109
Oc1ccc(Cl)cc1Cc1cc(Cl)ccc1O; 11.5
Cc1cc(C)c([I+]c2c(C)cc(C)cc2C)c(C)c1; 1.11
CC[n+]1ccc(Nc2ccc(NC(=O)c3ccc(Nc4cc[n+](CC)c5ccc([N+](=O)[O-])cc45)cc3)cc2)cc1; 77

====

- System: U251 CNS
- Procedure details: NCI-60 one-dose screen, 48 h
- Test settings: 10 µM unless noted
The panel holds about 83,000 compounds, 20% with a hit somewhere; the sample as a whole holds those more often. Active and inactive are the calls of the source. Rule for the calls: active = growth percent below 10; inactive = the rest.
Outcome codes: active, inactive

O=C1c2ccccc2Cc2cccc(Cl)c21; inactive
CC1(C)OC2C(COC(c3ccccc3)(c3ccccc3)c3ccccc3)OC(c3c[nH]c4c(N)ncnc34)C2O1 (stereo unspecified); inactive
O=C(NOC(=O)c1ccccc1)c1ccccc1; inactive
c1ccc(-c2cc3cc4ccccc4cn3c2)cc1; inactive
Cc1nnc(N/N=C/c2ccc([N+](=O)[O-])o2)[nH]c1=O; active
O=C(NNc1ccccc1)OCc1ccccc1; inactive

====

- Tested on: MCF7 breast
- Procedure details: NCI-60 one-dose screen, 48 h (100 = growth as untreated, 0 = no growth, -100 = all killed)
- Test settings: 10 µM unless noted
This is part of a sample that, as a whole, favours compounds with a hit. Of some 83,000 tested, about 20% had one in any assay.
Listing of recorded growth by entry.
Quantity: growth (%)

O=C(O)c1ccc2c(c1)C(=O)c1ccccc1C2=O; 97.7
Cc1ccc(Nc2ccc(O)c3c2C(=O)c2c(O)ccc(Nc4ccc(C)cc4)c2C3=O)cc1; 98
OC(c1cc2ccc(C(F)(F)F)cc2c2cc(C(F)(F)F)ccc12)C1CCCCN1 (stereo not given); -90.8
Cc1ccc2c(c1)sc(-c1ccc(N(C)C)cc1)[n+]2C; 3.8
COc1cc(/C=C2\SC(=S)N(/C=C/c3nc4ccccc4[nH]c3=O)C2=O)cc(OC)c1OC; 82.1
CC1=CC(=NC(=O)CBr)C=C/C1=N\S(=O)(=O)c1ccccc1; 16.3
N=C(N)Sc1cccc[n+]1[O-]; 14.6
Cc1ccccc1NC(=O)Cc1csc2[n+]1C(=O)/C(=C/c1ccc([N+](=O)[O-])cc1)S2; 92.7
O=C1CSC(=S)N1Cc1cccnc1; 10.5
C/C(=N/NC(N)=S)c1ccc(C)cc1; 25.6

====

- Tested on: OVCAR-5 ovarian
- Procedure details: NCI-60 one-dose screen, 48 h (100 = growth as untreated, 0 = no growth, -100 = all killed)
- Test settings: 10 µM unless noted
The panel holds about 83,000 compounds, 20% with a hit somewhere; the sample as a whole holds those more often.
Listing of recorded growth by entry.
Quantity: growth (%)

COC1CC(C)C(OC)c2cc(O)cc(c2O)NC(=O)/C(C)=C/C=C\C(C)C(OC(N)=O)/C(C)=C\C(C)C1OC (stereo unspecified); 27.2
COc1cc(NCc2ccc3nc(N)nc(N)c3c2C)cc(OC)c1OC (tested in a mixture with another compound); 36.9
N#CC(=C1SCS1)[N+](=O)[O-]; 47
CN=C(N)N/N=C(\C)c1ccc2c(c1)Cc1ccccc1-2; -69.1
c1ccc(-c2cccc(-c3ccccn3)n2)nc1; 59
Cc1c(O)ccc(SC#N)c1C; 97.3
